# method notes: Polymorph screening of solid state drug substances (Table 23)
# Format: physicochemical
# experimental parameters: Heptane, stirred 50 °C 72 hours
measurement type: XRPD results (Dried)

C=C1CC[C@@]2(O)C3Cc4ccc(OC(=O)NC(C)(C)C)c5c4[C@@]2(CCN3CC2CC2)[C@H]1O5; Pattern A
C=C1CC[C@@]2(O)C3Cc4ccc(OC(=O)CCCCCCCCCCCCCCCCCCC)c5c4[C@@]2(CCN3CC2CC2)[C@H]1O5; Pattern A

###

# method notes: Rat pharmacokinetic studies, intramuscular administration
# Type: in vivo, male Sprague Dawley Rats
# experimental parameters: male, Sprague Dawley, rat, plasma, intramuscular, 0.8 mg/kg
Structures can show the parent of a compound that is named as a salt.
measurement type: concentration at 1 h (ng/mL)
Number only, in ng/mL; omit the unit.

stdin: Give recorded concentration at 1 h. C=C1CC[C@@]2(O)[C@H]3Cc4ccc(O)c5c4[C@@]2(CCN3CC2CC2)[C@H]1O5 [nalmefene HCL, reference compound]
stdout: 29.4

###

# method notes: Dog pharmacokinetic studies, deep intramuscular administration
# Assay type: in vivo, Beagle dogs
# experimental parameters: Beagle, dog, plasma, im, 48 mg/kg, IM 48 mg/kg, Sesame oil + 1% Benzyl Alcohol; read-out: AUC0-inf (ng · h/mL) prodrug
Exercise: for every item that follows, state its recorded AUC(0-inf).
Number only, in ng·h/mL; omit the unit.

stdin: Give recorded AUC(0-inf). `C=C1CC[C@@]2(O)C3Cc4ccc(OC(=O)OCCCCCCCCCCC)c5c4[C@@]2(CCN3CC2CC2)[C@H]1O5`
stdout: 360

stdin: Give recorded AUC(0-inf). `C=C1CC[C@@]2(O)C3Cc4ccc(OC(=O)CCCCCCC/C=C/CCCCCCCC)c5c4[C@@]2(CCN3CC2CC2)[C@H]1O5`
stdout: 1140

stdin: Give recorded AUC(0-inf). `C=C1CC[C@@]2(O)C3Cc4ccc(OCOC(=O)OCCCCCCCC/C=C/CCCCCCCC)c5c4[C@@]2(CCN3CC2CC2)[C@H]1O5`
stdout: 1040

stdin: Give recorded AUC(0-inf). `CCCCCCCCCCCOC(=O)OCOc1ccc2c3c1O[C@H]1C(=O)CC[C@@]4(O)C(C2)N(CC2CC2)CC[C@]314`
stdout: 829

stdin: Give recorded AUC(0-inf). `CCCCCCCC/C=C/CCCCCCCCOC(=O)OCOc1ccc2c3c1O[C@H]1C(=O)CC[C@@]4(O)C(C2)N(CC2CC2)CC[C@]314`
stdout: 610

stdin: Give recorded AUC(0-inf). `C=C1CC[C@@]2(O)C3Cc4ccc(OCOC(=O)OCCCCCCCCCCC)c5c4[C@@]2(CCN3CC2CC2)[C@H]1O5`
stdout: 3870

###

# method notes: Dog pharmacokinetic studies, deep intramuscular administration
# Type: in vivo, Beagle dogs
# experimental parameters: Beagle, dog, plasma, im, 48 mg/kg, IM 48 mg/kg (deep), Sesame oil + 1% Benzyl Alcohol; read-out: AUC0-inf (ng · h/mL) prodrug
measurement type: AUC(0-inf) (ng·h/mL)
Number only, in ng·h/mL; omit the unit.

stdin: Give recorded AUC(0-inf). C=C1CC[C@@]2(O)C3Cc4ccc(OC(=O)OCCCCCCCCCCCC)c5c4[C@@]2(CCN3CC2CC2)[C@H]1O5 [Compound 6]
stdout: 2190

###

Exercise: for every item that follows, state its recorded solubility.
# method notes: Solubility determination in oil (Table 10)
# experimental parameters: 40 °C, oil or lipid, thermodynamic from solid, Approximate Solubility in Excipient: Cottonseed oil, Heating Temp. 60 °C, Obs. Temp. 40 °C

stdin: Give recorded solubility. `CCCCCCCCOC(=O)Oc1ccc2c3c1O[C@H]1C(=O)CC[C@@]4(O)C(C2)N(CC2CC2)CC[C@]314`
stdout: > 412 mg/mL

stdin: Give recorded solubility. `C=C1CC[C@@]2(O)C3Cc4ccc(OC(=O)CCCCCCCCCCCCCCCCC)c5c4[C@@]2(CCN3CC2CC2)[C@H]1O5`
stdout: > 398 mg/mL

stdin: Give recorded solubility. `C=C1CC[C@@]2(O)C3Cc4ccc(OC(=O)CCCCCCCCCCCCCCC)c5c4[C@@]2(CCN3CC2CC2)[C@H]1O5`
stdout: 25 to 50 mg/mL

stdin: Give recorded solubility. `C=C1CC[C@@]2(O)C3Cc4ccc(OC(=O)CCCCCCCCCCCCCCCCCCC)c5c4[C@@]2(CCN3CC2CC2)[C@H]1O5`
stdout: 201 to 403 mg/mL

stdin: Give recorded solubility. `C=C1CC[C@@]2(O)C3Cc4ccc(OC(=O)CCCCCCC/C=C/CCCCCCCC)c5c4[C@@]2(CCN3CC2CC2)[C@H]1O5`
stdout: > 401 mg/mL

stdin: Give recorded solubility. `C=C1CC[C@@]2(O)C3Cc4ccc(OC(=O)CCCCCCCCCCCCCCCCCCCCC)c5c4[C@@]2(CCN3CC2CC2)[C@H]1O5`
stdout: < 25 mg/mL

stdin: Give recorded solubility. `CCCCCCCCCCCCCCCC(=O)Oc1ccc2c3c1O[C@H]1C(=O)CC[C@@]4(O)C(C2)N(CC2CC2)CC[C@]314`
stdout: > 400 mg/mL

stdin: Give recorded solubility. `CCCCCCCCCCCCCCCCOC(=O)Oc1ccc2c3c1O[C@H]1C(=O)CC[C@@]4(O)C(C2)N(CC2CC2)CC[C@]314`
stdout: 101 to 135 mg/mL

stdin: Give recorded solubility. `O=C(CCC1CCCC1)Oc1ccc2c3c1O[C@H]1C(=O)CC[C@@]4(O)C(C2)N(CC2CC2)CC[C@]314`
stdout: 140 to 210 mg/mL

stdin: Give recorded solubility. `CC(C)(C)CC(=O)Oc1ccc2c3c1O[C@H]1C(=O)CC[C@@]4(O)C(C2)N(CC2CC2)CC[C@]314`
stdout: < 26 mg/mL

stdin: Give recorded solubility. `CCCCCCCC/C=C\CCCCCCCCCCCC(=O)Oc1ccc2c3c1O[C@H]1C(=O)CC[C@@]4(O)C(C2)N(CC2CC2)CC[C@]314`
stdout: > 406 mg/mL
